Tested on: Sphaerotheca fuliginea
METHOD NOTES: Sphaerotheca test (cucumber)/protective
Format: in vivo
ASSAY CONTEXT: Podosphaera fuliginea, 240 h; cucumber, protective, single active compound, application rate 2.5 g/ha, evaluation 10 days after inoculation; read-out: Efficacy in %
Could you please mark Criterion met for values of pest or weed control at 2.5 g/ha below 60% and Criterion not met for values at or above it?

COMPOUND	ASSIGNED CLASS
CC(C)(C)C(O)C(Oc1ccc(-c2ccccc2)cc1)n1cncn1 (centres unmarked) [(IIc)]	Criterion met
CO/N=C(\C1=NOCCO1)c1ccccc1Oc1ncnc(Oc2ccccc2Cl)c1F [(XIV)]	Criterion met
CO/N=C(/C(=O)OC)c1ccccc1COc1ccccc1C [(XIII)]	Criterion met
CC(C)(C)C(O)C(Oc1ccc(Cl)cc1)n1cncn1 (centres unmarked) [(IIb)]	Criterion not met

* * *

Tested on: Erysiphe graminis f. sp. tritici
METHOD NOTES: Erysiphe test (wheat)/curative
Type: in vivo
ASSAY CONTEXT: curative, single active compound, application rate 12.5 g/ha, 7 days after inoculation
The following molecules are listed with their measured Efficacy in % values.
MEASUREMENT KIND: Efficacy in % (%)

MOLECULE	MEASUREMENT KIND	READOUT VALUE
OC(Cc1ccccc1Cl)(Cn1nc[nH]c1=S)C1(Cl)CC1 (stereo not shown)	Efficacy in %	50
Cc1cc(C2CC2)nc(Nc2ccccc2)n1	Efficacy in %	0
CCCN(CC)CC1COC2(CCC(C(C)(C)C)CC2)O1 (stereo not shown)	Efficacy in %	0
CO/N=C(\C1=NOCCO1)c1ccccc1Oc1ncnc(Oc2ccccc2Cl)c1F	Efficacy in %	0

* * *

The following molecules are listed with their measured pest or weed control at 2.5 g/ha values.
Test system: Sphaerotheca fuliginea
METHOD NOTES: Sphaerotheca test (cucumber)/protective
Format: in vivo
ASSAY CONTEXT: Podosphaera fuliginea, 240 h; cucumber, protective, single active compound, application rate 2.5 g/ha, evaluation 10 days after inoculation; read-out: Efficacy in %
Description: Sphaerotheca Test (Cucumber)/Protective • Solvent: 47 parts by weight of acetone • Emulsifier: 3 parts by weight of alkylaryl polyglycol ether After the spray coating has dried on, the plants are inoculated with an aqueous spore suspension of Sphaerotheca fuliginea. The plants are then placed in a greenhouse at about 23° C. and a relative atmospheric humidity of about 70%. Evaluation is carried out 10 days after the inoculation.

MOLECULE	SYSTEM NAME	pest or weed control at 2.5 g/ha, %
OC(Cc1ccccc1Cl)(Cn1nc[nH]c1=S)C1(Cl)CC1 (stereo not shown)	Sphaerotheca fuliginea	21
CC(C)(C)C(O)(CCc1ccc(Cl)cc1)Cn1cncn1 (stereo not shown)	Sphaerotheca fuliginea	50
CC(C)(C)C(=O)C(Oc1ccc(Cl)cc1)n1cncn1 (stereo not shown)	Sphaerotheca fuliginea	37
CSC(=O)c1cccc2nnsc12	Sphaerotheca fuliginea	0
